System: AR mRNA
Test: AR mRNA in liver, heart, skeletal muscle, kidney, prostate of cynomolgus monkeys
Format: in vivo
Conditions: cynomolgus monkey, 40 mg/kg subcutaneously, weeks 1 to 6, Prostate
Oligonucleotides are written 5' to 3', each unit as a sugar letter and its base; * is a phosphorothioate linkage, no mark a phosphodiester; rarer units and linkages stand in square brackets, end groups in braces. Plain capitals give the bases only. e = 2'-O-(2-methoxyethyl) (MOE); k = constrained ethyl (cEt); [5mC] = 5-methylcytosine; d = 2'-deoxy (DNA)
Assign labels as follows, please: condition met for Percent Inhibition of AR mRNA relative to the PBS control, Prostate below 40%; condition not met for Percent Inhibition of AR mRNA relative to the PBS control, Prostate equal to or exceeding 40%.

Known results for substances:
1. 583918 (kA*kG*kT*d[5mC]*dG*d[5mC]*dG*dA*d[5mC]*dT*d[5mC]*dT*dG*kG*kT*kA) [compound 583918] | condition not met
2. 584149 (kG*kT*k[5mC]*dA*dA*dT*dA*dT*d[5mC]*dA*dA*dA*dG*k[5mC]*kA*k[5mC]) [compound 584149] | condition not met
3. 560131 (antisense kT*kT*kG*dA*dT*dT*dT*dA*dA*dT*dG*dG*kT*kT*kG*e[5mC]) [compound 560131] | condition met

Does 584468 (k[5mC]*kA*kT*dT*dG*dT*dA*d[5mC]*dT*dA*dT*dG*d[5mC]*k[5mC]*kA*kG) [compound 584468] have Percent Inhibition of AR mRNA relative to the PBS control, Prostate strictly under 40%?
condition not met

Does 584163 (kG*kA*kA*d[5mC]*dA*dT*dT*dA*dT*dT*dA*dG*dG*k[5mC]*kT*kA) [compound 584163] have Percent Inhibition of AR mRNA relative to the PBS control, Prostate strictly under 40%?
condition not met

###

This listing pairs substances with measured percent inhibition of AR, 46.9 nM.
Test system: AR mRNA
Experiment: Dose-dependent antisense inhibition of human AR in HuVEC cells (electroporation, qRT-PCR RTS3559, IC50)
Type: cell-based
Settings: Table 33; 46.9 nM, HuVEC, electroporation, approximately 16 hours
Oligonucleotides are written 5' to 3', each unit as a sugar letter and its base; * is a phosphorothioate linkage, no mark a phosphodiester; rarer units and linkages stand in square brackets, end groups in braces. Plain capitals give the bases only. k = constrained ethyl (cEt); [5mC] = 5-methylcytosine; d = 2'-deoxy (DNA)
Output spec: scalar in %, unitless text.

1) 583862 (kG*k[5mC]*kT*d[5mC]*dT*dT*dG*d[5mC]*d[5mC]*dT*dG*d[5mC]*dG*k[5mC]*kT*kG; antisense) [compound 583862] | 15
2) 583969 (k[5mC]*k[5mC]*kT*dT*d[5mC]*dT*dT*d[5mC]*dG*dG*d[5mC]*dT*dG*kT*kG*kA; antisense) [compound 583969] | 12
3) 549458 (kG*kT*kT*dG*dA*dT*dT*dT*dA*dA*dT*dG*dG*kT*kT*kG) [compound 549458] | 21
4) 583868 (kA*k[5mC]*kT*d[5mC]*dA*dG*d[5mC]*dA*dG*dT*dA*dT*d[5mC]*kT*kT*k[5mC]; antisense) [compound 583868] | 19
5) 549372 (kA*kA*kG*dT*dT*dG*dT*dA*dG*dT*dA*dG*dT*k[5mC]*kG*k[5mC]) [compound 549372] | 14

Entry 583866 (kT*k[5mC]*kT*dT*d[5mC]*dA*dG*dT*dG*d[5mC]*dT*d[5mC]*dT*kT*kG*k[5mC]; antisense) [compound 583866] needs its percent inhibition of AR, 46.9 nM filled in; supply it.
17

Entry 583843 (kG*kT*kA*d[5mC]*dA*dT*dG*d[5mC]*dA*dA*dT*d[5mC]*d[5mC]*k[5mC]*k[5mC]*k[5mC]; antisense) [compound 583843] needs its percent inhibition of AR, 46.9 nM filled in; supply it.
22
